The origin of these recorded values is PubChem BioAssay (NCI).

Reported growth inhibition values for a set of compounds
Measurement protocol: NCI Yeast Anticancer Drug Screen. Data for the rad50 strain (AID 155);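 also: 0% = growth of vehicle-only cultures of the same strain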
Condition label: S. cerevisiae rad50 strain growth inhibition; at 50.0 µM; hits give high values
About 79,000 compounds went through this panel and 15% of them were active in at least one assay; those are over-represented in the sample as a whole.
Numeric answer only, unit % assumed.

Known results for compounds:
Compound | growth inhibition / %
[Cl][Hg][Cl] | 91.3
CC1CCS(=O)(=O)CC1.[Cl][Hg][Cl] | 99.6
O=c1c2ccccc2[se]n1-c1ccccc1 | 70.2
CC(=O)OC1CCC2(C)C3=C(CCC2C1(C)C)C1(C)CCC(C(C)CCC2NC2(C)C)C1(C)CC3 (stereo not given) | 22.6
Cc1ccc2c[c]1[Hg][CH2]COS2(=O)=O | 94.7
CS/C([S-])=N/N=C/c1ccccn1.[Cl][Pt+] | 82.2
O=S(=O)([O-])[O-].[Fe+2].c1ccc(/C(=N\Nc2ccccn2)c2ccccn2)cc1 | 12.9
c1ccc(P(CCP(c2ccccc2)c2ccccc2)CCP(c2ccccc2)c2ccccc2)cc1 | 92.3

// growth inhibition lookup, key: `c1ccc(NC2=NCCN2)nc1` 14.4

// growth inhibition lookup, key: CCCCN(CC)CC(C(C)=O)c1c(O)c2ccccc2oc1=O (stereo not given) 66.8

// growth inhibition lookup, key: `CCCCCCCCCCCCC(=O)[O][Hg][c]1ccccc1` 99.2
